- System: CP269
- experiment: qHTS profiling for inhibitors of Plasmodium falciparum proliferation (AID 504749); note: nearly all actives have a fitted effect of over 60% in size
- measurementSetup: P. falciparum in erythrocytes, SYBR Green DNA, 72 h; series mostly up to 12.8 µM
Inconclusive results are not listed. The source made the active and inactive calls. Calls come from the whole dose curve; as a rule, active = well fitted inhibition curve with a large enough effect; inconclusive = small, poorly fitted or top-dose-only effect; inactive = flat fitted curve, though single readings scatter.
Can you answer with just one of these options? class 1 for active, class 0 for inactive

Recorded test call requested for COc1ccccc1OC[C@H](O)COC(N)=O class 0

Call for entry CCCN(CCC)C(=O)[C@@H](CCC(=O)O)NC(=O)c1ccccc1 : class 0

What call does the record list for O=c1[nH]c(=O)n([C@@H]2C[C@H](O)[C@H](CO)O2)cc1I ? class 0

Which outcome was entered for the compound NC(=O)OC[C@H](O)COc1ccc(Cl)cc1 in this test? class 0

Given C[C@@H](C(=O)O)c1ccc(C(=O)c2cccs2)cc1 , state the outcome it received in this test. class 0

Please indicate how the test categorized CO/N=C(\C(=O)N[C@@H]1C(=O)N2C(C(=O)O)=C(COC(C)=O)CS[C@@H]12)c1csc(N)n1 . class 0

In this assay, the call recorded for CCn1cc(C(=O)O)c(=O)c2cc(F)c(N3CCN[C@@H](C)C3)c(F)c21 was what? class 0

Would you mind telling me which call this test gave C[C@@H]1CCC[C@H](C)N1NC(=O)c1ccc(Cl)c(S(N)(=O)=O)c1 ? class 0

What is the recorded call for this compound in the test? CN1[C@@H]2CC[C@H]1CC(OC(=O)[C@@H](O)c1ccccc1)C2 (stereo not given in full) class 0

Next up:
For Cc1cc(/C=C\c2ccc3cc(N(C)C)ccc3[n+]2C)c(C)n1-c1ccccc1 , what call appears in the results of this test? class 1
